test system: MS2 coat protein; test: apparent KD of MS2 coat protein, switch OFF state (with FMN for OFF switches, without FMN for ON switches); designed switch direction (-1 OFF switch, 1 ON switch): 1; higher = weaker reporter binding; details: FMN input: 0 or 200 uM; Eterna round: R93 (includes R88 designs)
property: apparent KD of MS2 coat protein
Report the figure along with its unit, number first.

These solved cases illustrate the format of a correct answer.
ACUACACAUGAGGAUCACCCAUGUCAGGCCGGACUAGGAUAUUAUAAACCAGAGUAAAAAUAAGAAGGAGUAGGAA [JR_SS001_Sub310] | 61.3 nM
AAAUAAAUGACUGAGGAUAUAUCGAUGAAUACAUGAGGAUCACCCAUGUGAUAAUAAAAAGGGUGGUAGAAGGUAGUCAACAAAC [Mod 13 of Pariah 4 by Hyphema in Round 1] | 71.9 nM

Now let's try a different one.
Exercise: Return reported apparent KD of MS2 coat protein. Input sequence: GGUACUACAGAUCAGGAUAUGUUUGGGUAAACAUGAGGAUCACCCAUGUGUGCCCGAUACACAGCACAGAAGGGAUAACGUGGGA [Ditia]
Key: 21.4 nM

###

Please go through the items and note down their apparent KD of MS2 coat protein.
system: MS2 coat protein; assay: apparent KD of MS2 coat protein; higher = weaker reporter binding; conditions: Eterna round: R107; input ligand: theophylline 20 uM
Numbers only, in nM.

These solved cases illustrate the format of a correct answer.
UGUGGGCGCACGGCCGCCACUGUCUUCAUCUGUUUGUCUACAUGAGGAUCACCCAUGUUGGUUUACAGGACCGGGUGCAUCUAUG [SSTryp B #12] | 80.8
GAAGAGACCUCGGCCGCCACUCGCCAUGAGGAUCUCCCAUGUAACAUGAGGAUCACCCAUGUACAGAGGACCGGGAGGUCCUAGU [Same State Tryptophan B GF 14] | 39.1
AAACGUUGCUGCGAUACCAGACAUGAGGAUCACCCAUGUACCAAGGUACGAAUAUAACAUGUCCCUUGGCAGCGCAGCAACGAAA [MAT - Exclusion Theophlline B - Mod of Eli - D7] | 22.7

// input: 2 sequences below; output: apparent KD of MS2 coat protein for each
1. CCGUUAAAAUUCCAUUAUACAAUACCUGAAGGAGCGUAGGAAACUACAGGUAGGUCGCAGAUACAUGAGGAUCACCCAUGUACGG [SSAA #13]
2. AUUUAUUAGACGGCCGCCACUUGAAAGCGACCUCAUAAAUGGGAACAUGAGGAUCACCCAUGUAAGAGGACCGGGUCUAGUAGAU [TryptB-ms2@45]

Key:
20.3
150

###

Please go through the items and note down their apparent KD of MS2 coat protein.
tested on: MS2 coat protein; test: apparent KD of MS2 coat protein, switch ON state; designed switch direction (-1 OFF switch, 1 ON switch): -1; higher = weaker reporter binding; conditions: FMN input: 0 or 200 uM; Eterna round: R93 (includes R88 designs)
Give bare numbers, in nM.

AAUAAACAUGAGGAUCACCCAUGUCAGGAUAUGCAUCUAACCUAAUAACAUAAAUACAGCAGAAGGGACUAAUA [JR_Exc001_Sub602] | 26.8
AAAAACUGAGGAUAUACUUUGGGAAAAGAAAAGAUGAUGUUACAUGAGGAUCACCCAUGUAGAAGGCAGAAAAA [Mat - Exclusion 2 - Mod - D154] | 25.4
AAAAAACAUGAGGAUCACCCAUGUGAGGAUAUGAAAAAACAAAAAAAAAAGUAAACAAUCAGAAGGCACAACAA [JR_Exc--1_Sub1211] | 27.3
AGUCGGCGAGGAUAUACAUGAGGAUCACCCAUGUGAGAGCUAAAAGUGAGUCAGAAAAGUAGAAGGCGCUGACA [JL Lego Mod 6] | 96.5
AAAAUGUGAGGAUAUCUGGAUAGGAAAAAGAAAACCUAUCCAGAGAAGGCACAUGAGGAUCACCCAUGUAAAAA [JL cataway mod 4] | 121
AAAAAGGGAGGAUAUACAGGAGGUCAAAAAAAAAAAAAAAAACAUGAGGAUCACCCAUGUAGAAGGCUUAAAAA [Ecls2-III] | 26.7
AGAAAGUGAGGAUAUUCGGAUAGGAAAACGAAAACCUAUCCGAAGAAGGCACAUGAGGAUCACCCAUGUAAAAA [Mat - Exaclusion 4 - Eli mod - D38] | 33.2
CUCAAGUAAGGAUAUUCAAGAAAAGAAGAGAAAGAAAAGAAGAAGAAGGUACAUGAGGAUCACCCAUGUAAGAA [EteRNA is fun!] | 44.6

// input: 3 sequences below; output: apparent KD of MS2 coat protein for each
1. AAGAAACAUGAGGAUCACCCAUGUCAGGAUAUGCAAAACUGACGAAAGUCAGAAGAAAGCAGAAGGGACUAGAA [5-pair stack]
2. AAAAAACAUGAGGAUCACCCAUGUGAGGAUAUUGGUAUUAAAGACACCCACUUAAUGGCGAGAAGGCGCAAAAA [Brourd 613 Mod 19 - Jieux - Exclusion 1]
3. AGUGAGUCAGGAUAUGACUGAAGAAUAAAAGAAAUAACAAGUCAGAAGGGACAUGAGGAUCACCCAUGUACACA [May 59]

Key:
[29.1, 25.5, 30.9]

// input: 2 sequences below; output: apparent KD of MS2 coat protein for each
1. CUCAAGUGAGGAUAUACAAAUAGUAAAUAAGUAUAACAAAAGUAGAAGGCACAUGAGGAUCACCCAUGUAAAUA [JR_Exc004_Sub302]
2. CAGUACUGAGGAUAUACAUGAGGAUCACCCAUGUGUUCCAGCUAGGAAACUAGCACAUGUAGAAGGCAGUACUG [Ex3: 826]

Key:
1. 29.4
2. 187

###

system: K4 kissing-loop RNA reporter; experiment: apparent KD of K4 kissing-loop reporter; higher = weaker reporter binding; details: Eterna round: R107; input ligand: theophylline 20 uM;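 further: bound reporter read as fluorescence of individual clusters on recovered sequencing chips by microscopy, with normalized cluster intensities fitted with a binding model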
Please go through the items and note down their apparent KD of K4 kissing-loop reporter.
One number for each entry, in nM.

AUUCGCAGUGAUGUUGCGAUUCCGUUGAGGGAGGAUAUUGGUAAUACAAGAAGGCCCGGCUGCGGGUGAUGUUCGCAUUAGGGCC [Exclusion FMN A GF18] | 153
AGGUGAGACUGAAGGAGCGAUCGCGCCAGUGAUGUUGGUGAGCAUGACAAAGUCAUGCACGAUCAGGUAGGUCGCAGUCUUACUC [Omei KL Arginine B SS B v2] | 188
AGGCGGCAUGAUUGACUGAAAAGAAAUCAACGAGGACCGGUACGGCCGCCACUCGAACACCAGUGAUGUUGGUAUGGGAUAACCC [Exclusion Tryptophan A GF 19] | 173
CUGUCCUACGAAGGAUAUGCUGAUGGGAUCAAACAGUGAUGUUGUUAUGAACUUAGGCUUAUGUGCGCAGAAGGUCGUGGCGACG [theeternabot_sameState_KL_FMN_B_42] | 801
AGGCACGAGCAAGGAUAUCGAGUAGAGUGAUGUUCUGCCUGGGUUGGCUCGCAAGAGCCUUCUCAGCGAGAAGGUGCUCGUGCCU [#2 Same State - FMN A Attempt #18 (HarryS)] | 595

// input: 3 sequences below; output: apparent KD of K4 kissing-loop reporter for each
1. AACGCUGGUGAAUAACACUAGCGAAAAUUCCGAGGACCGGUACGGCCGCCACUCGGCUAACUGCGAGUGAUGUUCGAUAAUAAAA [Mat - Mod of OpenEnded 3 - D9]
2. AUUAAUAUCACGGCCGCCACUGAAUAUUGUUUUUAUAUUUAGAAUAAUUGCCAGUGAUGUUGGAUCAGGACCGGGUGAUUUUAUA [JR_SSTryptoB_Sub008]
3. GGCCGCAAGGCGGGCCGGCCCACUCCGGAAGGAGCGCCCGCAAGGGCAGGUAGGUCGCCGGAGUGAUGUUCCGGUGGCCGGCCCG [#2 Exclusion - Arginine A Attempt #2 (Inspired by Omei)]

Key:
189
739
93.8

// input: 3 sequences below; output: apparent KD of K4 kissing-loop reporter for each
1. UUGUUUGGUUGAGAGGUUGGGCGAGAUGAUACCAGUAGAGAAGAGUACCCUUGGCAGCAUAAGAAAGAUAUAGUGAUGUUGUAUA [SSTheophA.P]
2. AACAGCAAUGCGGCCGCCACUUCGAGGUCAGUGAUGUUGACGGAAUUAAAUAAAGAUCCCAAGAGGAGGACCGGGCAGUGCUGUU [whbob_SS_Tryp_B_t25]
3. ACGUAUAUCAGAGGAUAUCGUAUUAAUAUUUUAUCUAUCUAUAUAUGCAGUGAUGUUGCAAUAAUUCGAGAAGGCUGAUUUACGA [JR_ExcFMNB_Sub010]

Key:
[566, 410, 133]
